System: IGROV1 ovarian
ASSAY_NAME: NCI tumour cell line growth inhibition, 48 h
EXPERIMENTAL_READOUT: TGI

Problem: Form: Entry = Nc1c(S(N)(=O)=O)cc(S(N)(=O)=O)cc1S(N)(=O)=O | System = IGROV1 ovarian | TGI = ____
Solution: > 100 µM

Problem: Notebook: pull reported TGI for IGROV1 ovarian, entry COc1cc(Nc2ccnc(N3CCN(c4ccnc5cc(Cl)ccc45)CC3)n2)cc(OC)c1
Solution: > 26.1 µM

Problem: What reported TGI corresponds to O=C(C(=O)c1ccc(Cc2ccc(C(=O)C(=O)c3ccccc3)cc2)cc1)c1ccccc1 on IGROV1 ovarian?
Solution: > 100 µM

Problem: Enter reported TGI observed with IGROV1 ovarian for C[C@H](c1ccccc1)N1C(=O)[C@@H](OCc2ccccc2)[C@H]1[C@H](COC(=O)COCc1ccccc1)OCc1ccccc1
Solution: > 100 µM

Problem: // fetch IGROV1 ovarian TGI for CC(O)CNC1=CC(=O)C(=O)c2ccccc21 (stereo not given)
Solution: 33.8 µM

Problem: State its TGI on IGROV1 ovarian: Cc1cc(OCc2nnc3sc(NC(=O)c4ccccc4)nn23)ccc1Cl
Solution: 68 µM

Problem: Enter reported TGI observed with IGROV1 ovarian for COc1cc(-c2oc3ccccc3c(=O)c2O)cc(OC)c1OC
Solution: > 100 µM

Problem: Find TGI (IGROV1 ovarian) for the entry N#Cc1ccc(-c2nc(C#N)c(N)o2)cc1
Solution: > 10 µM

Problem: Form entry - test system: IGROV1 ovarian; read-out: TGI; compound: CC(=O)c1cccc(N(/C=C/C(=O)C(F)(F)F)CC(=O)c2ccc(Cl)cc2)c1
Solution: > 100 µM

Problem: IGROV1 ovarian / TGI / Clc1ccc(OCc2nnc(COc3ccc(OCc4nnc(COc5ccc(Cl)cc5Cl)o4)c(Cl)c3)o2)c(Cl)c1 : value?
Solution: 38.1 µM
